Molecular target: PPARγ (Homo sapiens)
Construct: The reporter is ERE-βGlob-Luc-SV-Neo
Sequence (P37231 238-505 limits assumed): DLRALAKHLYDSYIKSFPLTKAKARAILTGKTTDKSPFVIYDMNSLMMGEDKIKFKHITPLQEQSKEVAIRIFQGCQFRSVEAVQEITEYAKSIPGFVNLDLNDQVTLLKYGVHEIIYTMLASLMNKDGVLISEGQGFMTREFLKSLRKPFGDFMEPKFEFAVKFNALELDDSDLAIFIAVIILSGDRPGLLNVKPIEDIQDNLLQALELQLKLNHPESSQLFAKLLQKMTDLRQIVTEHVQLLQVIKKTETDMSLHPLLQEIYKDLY
Test: Crossed-curve PPAR transactivation assay (PPARγ)
Conditions: HeLN cells stably transfected with ERE-βGlob-Luc-SV-Neo and Gal-hPPARγ; crossed curves against reference agonist, Schild regression; n.a. means not active; read-out: PPAR gamma Kd app
ENDPOINT NAME: pKd
// pKd is dimensionless: -log10 of concentration (M)

input: Would you mind telling me what pKd value was observed for CCCCCCCNC(=O)N(C)c1cccc(-c2ccc(C[C@H](Nc3ccccc3C(=O)c3ccccc3)C(=O)NCCNC(C)=O)cc2)c1 ?
output: 7.22

Others:
input: So what does the record say about pKd for CN(Cc1cccc(-c2ccc(C[C@H](Nc3ccccc3C(=O)c3ccccc3)C(=O)O)cc2)c1)C(=O)c1ccccc1 ?
output: 6.30

input: What measured pKd goes with CN(C(=O)Nc1ccc2ccccc2c1)c1cccc(-c2ccc(C[C@H](Nc3ccccc3C(=O)c3ccccc3)C(=O)O)cc2)c1 ?
output: 8.40

input: Give the measured pKd of CCCCCCCNC(=O)N(C)c1cccc(-c2ccc(C[C@H](Nc3ccccc3C(=O)c3ccccc3)C(=O)N3CCC(C)CC3)cc2)c1 .
output: 7.52

input: Report pKd for CC(=CC(=O)c1ccccc1)N[C@@H](Cc1ccc(-c2cccc(CN(C)C(=O)c3ccccc3)c2)cc1)C(=O)O please.
output: 7.82

input: Requested read-out: pKd. Entry: CCCCCCCNC(=O)N(C)c1cccc(-c2ccc(C[C@H](Nc3ccccc3C(=O)c3ccccc3)c3nnc(CCC)o3)cc2)c1
output: 7.52

---

Molecular target: PPARδ (Homo sapiens, UniProt Q03181)
Construct: The reporter is ERE-βGlob-Luc-SV-Neo
Sequence (Q03181 211-441 limits assumed): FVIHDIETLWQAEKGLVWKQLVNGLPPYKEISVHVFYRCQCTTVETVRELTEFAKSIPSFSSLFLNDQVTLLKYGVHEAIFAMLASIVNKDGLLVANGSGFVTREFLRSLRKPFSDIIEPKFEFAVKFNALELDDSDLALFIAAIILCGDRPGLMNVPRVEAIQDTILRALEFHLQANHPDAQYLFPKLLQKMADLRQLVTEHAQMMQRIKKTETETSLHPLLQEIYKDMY
Experiment: Crossed-curve PPAR transactivation assay (PPARδ)
Format: cell-based
Conditions: HeLN cells stably transfected with ERE-βGlob-Luc-SV-Neo and Gal-hPPARδ; crossed curves against reference agonist, Schild regression; n.a. means not active; read-out: PPAR delta Kd app
ENDPOINT NAME: pKd
Please report pKd as the negative decimal logarithm of the molar concentration, giving only the number.

input: Please report the recorded pKd for CCCCCCCNC(=O)N(C)c1cccc(-c2ccc(C[C@H](Nc3ccccc3C(=O)c3ccccc3)C(=O)NCCCCC)cc2)c1 [Example 8] .
output: 6.30
